Where do the numbers come from? From PubChem BioAssay AID330.

Test system: P388 leukemia ip, CD2F1 mice, survival T/C
Assay: NCI In Vivo Anticancer Drug Screen. Data for tumor model P388 Leukemia (intraperitoneal) in CD2F1 (CDF1) mice
Settings: endpoint: median survival time; dose: 200.0 mg/kg/injection; schedule: Q01DX009 (ip); vehicle: Klucel (hydroxypropylcellulose) (HPC); higher = longer survival
Toxic doses and inconclusive results are not listed.
reported_metric: T/C

Some compounds with known T/C results, for comparison:
• O=c1ccn(C2OC(CO)C(O)C2Cl)c(=O)[nH]1 (stereo not given) = 104 % of control
• CO/C=C(\C(=O)OC)c1ccccc1 = 106 % of control
• Cc1c(N2CCCC2)cc2c(c1NC(=O)c1ccccc1Cl)C(C)(C)CC2(C)C = 99 % of control

Give reported T/C for CC(=O)C(C)(NCc1ccccc1)c1ccccc1 (stereo not given) (P388 leukemia ip, CD2F1 mice, survival T/C)
108 % of control

Give reported T/C for Cc1ccccc1C1C(C#N)C(=O)NC(=O)C1C#N (stereo not given) (P388 leukemia ip, CD2F1 mice, survival T/C)
110 % of control

Give reported T/C for "Cc1ccc(C)c(NC(=O)Nc2ccc(CCO)cc2)c1" (P388 leukemia ip, CD2F1 mice, survival T/C)
99 % of control

Give reported T/C for "CCN(c1ccccc1)S(=O)(=O)c1cc(N)ccc1C" (P388 leukemia ip, CD2F1 mice, survival T/C)
97 % of control

Give reported T/C for "O=C1CCC(=O)N1SCc1cccc2ccccc12" (P388 leukemia ip, CD2F1 mice, survival T/C)
102 % of control

Give reported T/C for "Cc1ccc(I)c(C(C)(C)O)c1" (P388 leukemia ip, CD2F1 mice, survival T/C)
97 % of control

Give reported T/C for "Cc1c(O)ccc(C(=O)C(=O)C(C)C)c1O" (P388 leukemia ip, CD2F1 mice, survival T/C)
116 % of control

###

Known T/C of a selection of compounds
Test system: P388 leukemia ip, CD2F1 mice, survival T/C
Test: NCI In Vivo Anticancer Drug Screen. Data for tumor model P388 Leukemia (intraperitoneal) in CD2F1 (CDF1) mice
Settings: endpoint: median survival time; dose: 100.0 mg/kg/injection; schedule: Q01DX009 (ip); vehicle: water; higher = longer survival
Toxic doses and inconclusive results are not listed.

* COc1ccc(C[C@H](N)C(=O)NC2C(CO)OC(n3cnc4c(N(C)C)ncnc43)C2O)cc1 (stereo partly drawn) | 95 % of control

Note T/C for the compound shown: CCOC(=O)OCC1OC(OC(C)=O)C(OC(C)=O)C(OC(=O)OCC)C1OC(=O)OCC (stereo not drawn)
99 % of control

Note T/C for the compound shown: CN(C)C(CC(=O)O)C(=O)O (stereo not drawn)
98 % of control

Note T/C for the compound shown: "CN(C)CCCNc1ccc(O)c2c1C(=O)c1ccccc1C2=O"
104 % of control

###

Test system: P388 leukemia ip, CD2F1 mice, survival T/C
Experiment: NCI In Vivo Anticancer Drug Screen. Data for tumor model P388 Leukemia (intraperitoneal) in CD2F1 (CDF1) mice
Conditions: endpoint: median survival time; dose: 50.0 mg/kg/injection; schedule: Q01DX009 (ip); vehicle: saline; higher = longer survival
Toxic doses and inconclusive results are not listed.
Known T/C of a selection of compounds

Some compounds with known T/C results, for comparison:
• CS(=O)(=O)OC[C@@H](O)[C@@H](O)COS(C)(=O)=O = 112 % of control
• CC1=CC(=O)NC1O (stereo not given) = 104 % of control
• CCOC(=O)c1cnc(NCCCCCCCCNc2ncc(C(=O)OCC)c(=O)[nH]2)[nH]c1=O = 103 % of control
• COc1cc([N+](=O)[O-])ccc1N=Cc1cccs1 = 97 % of control

Give reported T/C for CCCCCCCCCCCCCCC(Br)C(=O)O (stereo not given) (P388 leukemia ip, CD2F1 mice, survival T/C)
101 % of control

###

Known T/C of a selection of compounds
System: P388 leukemia ip, CD2F1 mice, survival T/C
Test: NCI In Vivo Anticancer Drug Screen. Data for tumor model P388 Leukemia (intraperitoneal) in CD2F1 (CDF1) mice
Details: endpoint: median survival time; dose: 50.0 mg/kg/injection; schedule: Q01DX005 (ip); vehicle: saline; higher = longer survival
Inconclusive results and toxic doses are left out. Square brackets hold non-standard residues; d marks the D form. Peptide text beside a SMILES is read from it. Sar = CNCC(=O)O

Some compounds with known T/C results, for comparison:
• CCN(CC)CCOCCCNc1ccnc2cc(Cl)ccc12 = 100 % of control
• CN(CC(=O)O)C(=O)CNC(=O)CN (H-Gly-Gly-[Sar]-OH) = 91 % of control
• CC1=CC[C@H]2C(=O)N(CCN(C)C)C(=O)[C@H]2C1 = 100 % of control
• Cc1cnc2cc(Cl)ccc2c1NCCNCCO = 119 % of control
• COc1ccc2c(c1)[C@]1(C)CCN(C)[C@@H]1N2C = 105 % of control

Note T/C for the compound shown: "COC(=O)[CH2][Sn]([CH3])([CH3])[CH2]C(=O)OC"
123 % of control

Note T/C for the compound shown: "Cc1nonc1CCO"
105 % of control

Note T/C for the compound shown: "COC(=O)C(=C\c1nc2ccc([N+](=O)[O-])cc2s1)/C(C(=O)OC)=C1\CCCN1C"
100 % of control

Note T/C for the compound shown: COC(=O)NC1CC(C2CO2)OC1=O (stereo not given)
101 % of control

Note T/C for the compound shown: "CC[N+]1=C(C2=NCCc3ccccc32)c2ccccc2CC1"
100 % of control

###

Known T/C of a selection of compounds
Test system: P388 leukemia ip, CD2F1 mice, survival T/C
Test: NCI In Vivo Anticancer Drug Screen. Data for tumor model P388 Leukemia (intraperitoneal) in CD2F1 (CDF1) mice
Conditions: endpoint: median survival time; dose: 100.0 mg/kg/injection; schedule: Q01DX005 (ip); vehicle: saline with Tween-80; higher = longer survival
Toxic doses and inconclusive results are not listed.

* Cc1cc2cc3ccc(Cl)nn3c2nn1 | 95 % of control
* O=C(O)CCCc1ccc2c(c1)OCO2 | 98 % of control
* Nc1ccc(S(=O)(=O)NC2C(O)OC(CO)C(O)C2O)cc1 (stereo not drawn) | 96 % of control
* Cc1ccc(S(=O)(=O)N/N=C/c2cc(I)cc(I)c2O)cc1 | 100 % of control
* CC(C)C(NC(=O)OCc1ccccc1)C(=O)NC(Cc1c[nH]c2ccccc12)C(=O)O (stereo not drawn) | 99 % of control
* CC(C)CC(NC(=O)OC(C)(C)C)C(=O)ON1C(=O)CCC1=O (stereo not drawn) | 111 % of control
* O=C1CC2C(=O)NC(=O)C2C(=O)N1 (stereo not drawn) | 101 % of control
* CCOc1c(N=Nc2ccccc2C)c(-c2ccccc2)nn1C(N)=S | 88 % of control
* CC(C)(C)OC(=O)NC(CCC(=O)O)C(=O)O (stereo not drawn) | 97 % of control
* CCSc1ccc([N+](=O)[O-])c2c(SCC)c3ccccc3nc12 | 95 % of control

// moving on: another record for T/C
Note T/C for the compound shown: COC(=O)C1C(=O)C(NC(=O)CCCCl)C(c2ccccc2)C(C(=O)OC)C1=O (stereo not drawn)
102 % of control

###

Test system: P388 leukemia ip, CD2F1 mice, survival T/C
Assay: NCI In Vivo Anticancer Drug Screen. Data for tumor model P388 Leukemia (intraperitoneal) in CD2F1 (CDF1) mice
Conditions: endpoint: median survival time; dose: 400.0 mg/kg/injection; schedule: Q04DX002 (ip); vehicle: saline with Tween-80; higher = longer survival
Inconclusive results and toxic doses are left out.
Known T/C of a selection of compounds

Some compounds with known T/C results, for comparison:
* Nc1cccc(-n2ccnc2)c1 | 90 % of control
* C=Cn1c([N+](=O)[O-])cnc1/C=C/c1ccc(C(=O)N(CC)CC)cc1 | 100 % of control
* COCOc1c(C)ccc2c1CCC2 | 95 % of control

Note T/C for the compound shown: "CN1CCc2c(n(C)c3ccccc23)C1=O"
99 % of control

Note T/C for the compound shown: "Cc1ccc2sc(-c3ccccc3)c(CCl)c(=O)c2c1"
108 % of control

Note T/C for the compound shown: "C/C(=N\NC(N)=Nc1ccc(Cl)cc1)c1ccc2c(c1)Cc1cc(/C(C)=N/NC(N)=Nc3ccc(Cl)cc3)ccc1-2"
100 % of control

###

Test system: P388 leukemia ip, CD2F1 mice, survival T/C
Test: NCI In Vivo Anticancer Drug Screen. Data for tumor model P388 Leukemia (intraperitoneal) in CD2F1 (CDF1) mice
Conditions: endpoint: median survival time; dose: 60.0 mg/kg/injection; schedule: Q01DX005 (ip); vehicle: saline with Tween-80; higher = longer survival
Inconclusive results and toxic doses are left out.
reported_metric: T/C

Some molecules with known T/C results, for comparison:
- COc1ccnc(-c2cc(OC)cc(/C(N)=N/O)n2)c1: 100 % of control
- Cc1ccc2c(c1)C(=Nc1ccc(Cl)cc1)C(=O)N2: 99 % of control
- COc1ccc(/C=C/Cc2cc3c(cc2OC)OCO3)cc1: 104 % of control
- CN(C)c1ccc2nc3c(cc(Nc4cccc5cccc(Nc6cc7ccccc7c7nc8ccc(N(C)C)cc8[o+]c67)c45)c4ccccc43)[o+]c2c1: 90 % of control
- CNC(=O)N(N=O)c1[nH]c(=O)ncc1Cl: 116 % of control

Note T/C for the molecule shown: CC1(C)COP(=O)(c2ccccc2)N1 (stereo not drawn)
103 % of control

Note T/C for the molecule shown: "CCOC(=O)c1c(Cl)c(Cc2ccccc2)c(Cl)n2c1nc1ccccc12"
99 % of control

Note T/C for the molecule shown: "N#Cc1cc2cccn2c2c1cnn2-c1ccccc1"
105 % of control

Note T/C for the molecule shown: "O=C(CCCl)Nc1ccc(CCC(=O)c2ccccc2NC(=O)CCCl)cc1"
100 % of control
